Taken from PubChem BioAssay.

# procedure-details: AGP1-GFP expression modulators, hit retest, confirmation, cell-based, flow cytometry, S. cerevisiae, cherry picks (AID 2273);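 note: median GFP channel fluorescence over the whole cell population gate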
# stated-conditions: S. cerevisiae AGP1-GFP strain, 3 h, at 10 µM
For each of the compounds below, state its GFP response, % of DMSO.
All answers are understood in %, so give the number only.

Per the records, this compound ( CCCc1[nH]nc2c1C(c1ccc(O)cc1OCC)C(C#N)=C(N)O2 (centres undefined) ) has GFP response, % of DMSO equal to 101

Per the records, this compound ( `COc1ccc(N2CCN(c3nc4c(C)cccn4c(=O)c3/C=C(\C#N)C(N)=O)CC2)cc1` ) has GFP response, % of DMSO equal to 106

Per the records, this compound ( `O=C(c1ccccn1)c1conc1C(=O)c1ccc(Br)cc1` ) has GFP response, % of DMSO equal to 105

Per the records, this compound ( `COc1ccc(N=Cc2cc(Cc3ccccc3Cl)cc([N+](=O)[O-])c2O)cc1OC` ) has GFP response, % of DMSO equal to 96.7

Per the records, this compound ( `O=C(c1cccc2ccccc12)N1CCN(c2ccccc2F)CC1` ) has GFP response, % of DMSO equal to 102

Per the records, this compound ( `Cc1ccccc1C(=O)Nc1ccccc1` ) has GFP response, % of DMSO equal to 100

Per the records, this compound ( `COc1ccc2c(/C=C/c3cc[n+](C)cc3)c[nH]c2c1` ) has GFP response, % of DMSO equal to 100

Per the records, this compound ( `Cc1nc2c(-c3ccc(F)cc3)c(C)nn2c(N2CCOCC2)c1C` ) has GFP response, % of DMSO equal to 98.7

Per the records, this compound ( `NC(=O)c1ccccc1OCC(=O)c1ccc(Cl)cc1` ) has GFP response, % of DMSO equal to 102

Per the records, this compound ( `COC(=O)c1ccc(C(=O)NC(=S)Nc2ccc3nc(SC)sc3c2)cc1` ) has GFP response, % of DMSO equal to 102

Per the records, this compound ( COCCN1C2=C(COC(C)(C)C2)C(=S)NC1c1ccccc1 (centres undefined) ) has GFP response, % of DMSO equal to 99.1

Per the records, this compound ( `COc1cccc(NC(=O)/C=C/c2ccc([N+](=O)[O-])cc2)c1` ) has GFP response, % of DMSO equal to 95.7

Per the records, this compound ( `COCCNc1c(-c2ccc(O)cc2)nc2ccc(Cl)cn12` ) has GFP response, % of DMSO equal to 93.1

Per the records, this compound ( `O=C(NC(=S)NNC(=O)[C@H]1C[C@@H]1c1ccccc1)c1cccc(F)c1` ) has GFP response, % of DMSO equal to 109

Per the records, this compound ( `CCCCN(CCCC)S(=O)(=O)c1ccc(C(=O)Nc2nnc(COC)o2)cc1` ) has GFP response, % of DMSO equal to 106

Per the records, this compound ( `Cc1cc(N)ccc1NC(=O)c1ccccc1` ) has GFP response, % of DMSO equal to 103

Per the records, this compound ( `O=c1c2c(-c3cccs3)csc2ncn1/N=C/c1ccccn1` ) has GFP response, % of DMSO equal to 99.2

Per the records, this compound ( `Oc1ccc(COCc2ccccc2)c2cccnc12` ) has GFP response, % of DMSO equal to 98.6

Per the records, this compound ( `Cc1cccc2nc(-c3cccnc3)c(NCCC(C)C)n12` ) has GFP response, % of DMSO equal to 98.5

Per the records, this compound ( COc1ccc(N2C(=O)CC(Sc3nccc(C)n3)C2=O)cc1 (centres undefined) ) has GFP response, % of DMSO equal to 107

Per the records, this compound ( `O=C(c1ccccc1F)N1CCN(c2ccccc2)CC1` ) has GFP response, % of DMSO equal to 95.2

Per the records, this compound ( COc1ccc(N2C(=O)CC(Sc3ncn[nH]3)C2=O)c(OC)c1 (centres undefined) ) has GFP response, % of DMSO equal to 102

Per the records, this compound ( `Brc1ccc2c(c1)OCCOCCOc1cc(Br)ccc1OCCOCCOCCO2` ) has GFP response, % of DMSO equal to 92.7

Per the records, this compound ( `O=C(/C(=C/O)N=Nc1ccc(Cl)cc1)c1ccncc1` ) has GFP response, % of DMSO equal to 101
